# TGI values compiled below
# System: HOP-92 NSCLC
# experimental_protocol: NCI tumour cell line growth inhibition, 48 h

Example entries begin here.
> print(dat)
                                   compound  property.measured  test.result
1  O=C(Nc1ccc(F)cc1)c1cc(S(=O)(=O)Nc2nc3ccccc3o2)c(SCc2ccccc2)cc1Cl                TGI      42.4 µM
2      S=c1[nH]c(=S)c2nnn(-c3ccccc3)c2[nH]1                TGI     > 100 µM
3  O=C(O)c1nc2ccc(C(F)(F)F)cc2nc1NCc1ccc(F)cc1                TGI      45.3 µM
4  COc1ccc2[nH]c3c(c2c1)CC(=S)N1CCCC(CC3=O)C1 (stereo unspecified)                TGI     > 100 µM
5  COC(=O)/C=C1\CCC(C)O1 (stereo unspecified)                TGI     > 100 µM
6  CC(=O)O[C@H]1CCC2[C@@H]3CCC4Nc5oncc5C[C@]4(C)C3CC[C@@]21C (stereo partly specified)                TGI      > 10 µM

TGI lookup needed for OCCCNc1nccc(-c2c(-c3ccc(F)cc3)nn3cc(C(F)(F)F)ccc23)n1 , thanks.
> 25 µM

TGI lookup needed for COc1cc(C(=O)N2CCN(c3ncccn3)CC2)c(N)cc1OCc1ccccc1 , thanks.
> 100 µM

TGI lookup needed for CN1C(=O)CSC1=S , thanks.
> 100 µM

TGI lookup needed for C/C(CC(=O)Nc1cccc(Cl)c1C)=N\NC(=O)c1ccncc1 , thanks.
> 100 µM

###

# Test system: SK-MEL-2 melanoma
# experimental_protocol: NCI tumour cell line growth inhibition, 48 h
property_measured: TGI (µM)
// units = µM; emit number, no label

Example entries begin here.
compound	test_target	TGI (µM)
O=S(=O)(Nc1ccc(F)cc1F)c1ccc(-c2cnc(C3CC3)o2)cc1	SK-MEL-2 melanoma	34.6
CCCCCCCCCCCCC/C=C/[C@@H](O)[C@H](COC1OC(CO)C(OC2OC(CO)C(O)C(OC3(C(=O)O)CC(O)C(NC(C)=O)C(C(O)C(O)CO)O3)C2O)C(O)C1O)N=[N+]=[N-] (stereo not given in full)	SK-MEL-2 melanoma	49.7
N#CC1=C(N)Oc2cc(O)ccc2C1c1cccc2ccccc12 (stereo not given)	SK-MEL-2 melanoma	24.3

Attention now turns to another entry.
Form field: TGI recorded for CCC(=O)O[C@H]1CC[C@H]2[C@@H]3CCC4=C/C(=N/OC(=O)c5cccc6c(=O)c7ccccc7[nH]c56)CC[C@]4(C)[C@H]3CC[C@]12C with SK-MEL-2 melanoma (enter value)
75.5

###

# Test system: DU-145 prostate
# experimental_protocol: NCI tumour cell line growth inhibition, 48 h; in the data active = GI50 below about 0.43 µM; inactive = the rest
Please reply with one of these outcomes: 1.0 = active, 0.0 = inactive

Examples with answers:
> print(dat)
                                   compound  classification
1  OCCCNc1nccc(-c2c(-c3ccc(F)cc3)nn3cc(C(F)(F)F)ccc23)n1             0.0
2  NC(=O)OCCn1cc(-c2nc(-c3c[nH]c4ncccc34)cs2)c2ccccc21             0.0
3  O=C(Nc1ccc(F)cc1)c1cc(S(=O)(=O)Nc2nc3ccccc3o2)c(SCc2ccccc2)cc1Cl             0.0
4  CN1C(=O)/C(=C/c2c(Cl)n(C)c3ccccc23)c2ccccc21             0.0
5  CC[C@H]1CN2CCc3cc(OC)c(OC)cc3[C@@H]2C[C@@H]1C[C@H]1NCCc2c1[nH]c1ccc(O)cc21             1.0

Test call for this compound, please: COc1cc(C(=O)N2CCN(c3ncccn3)CC2)c(N)cc1OCc1ccccc1
0.0

Test call for this compound, please: CC1=C(C(=O)Nc2ccc(Cl)c(Cl)c2)C(c2cccc(Oc3ccccc3)c2)NC(=O)N1 (configuration not stated)
0.0

Numbers sourced from PubChem BioAssay (NCI).
